Target: T1, human Ang2 polypeptide (R&D systems; Accession #O15123; SEQ ID NO: 172) (human, UniProt O15123 19-496)
T1 construct: Bought protein; also called hAng2; human Ang2 protein
T1 sequence: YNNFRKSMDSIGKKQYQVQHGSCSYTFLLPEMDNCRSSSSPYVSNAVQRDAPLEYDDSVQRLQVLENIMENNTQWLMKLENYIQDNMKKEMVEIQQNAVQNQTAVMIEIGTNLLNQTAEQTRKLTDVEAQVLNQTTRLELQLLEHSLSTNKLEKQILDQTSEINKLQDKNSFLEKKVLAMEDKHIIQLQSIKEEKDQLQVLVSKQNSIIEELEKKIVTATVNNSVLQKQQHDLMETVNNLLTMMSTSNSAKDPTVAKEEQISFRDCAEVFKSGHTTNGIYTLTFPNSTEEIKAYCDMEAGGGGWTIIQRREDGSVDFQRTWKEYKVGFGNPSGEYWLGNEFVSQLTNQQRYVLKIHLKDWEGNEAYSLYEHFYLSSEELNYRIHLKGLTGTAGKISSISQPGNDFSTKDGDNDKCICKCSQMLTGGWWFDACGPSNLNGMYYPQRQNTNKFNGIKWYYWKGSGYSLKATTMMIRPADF
Assay: ELISA, antigen coated, scFv, anti-HA-HRP; 50% binding concentration (Kd)
In this section, each of the binders is paired with its reported pKd.
API: returns pKd as number; meaning -log10 of concentration in mol/L.

binder	pKd
SAIT-ANG-2-AB-4-F11 (scFv form) (scFv, V domains shown, scFv from a phage display library) VH: EVQLLESGGGLVQTGGSLRLSCAASGFTFSDYAMSWVRQAPGKGLEWVSSIYPDDGNTYYADSVKGRFTISRDNSKNTLYLQMNSLRAEDTAVYYCAKHPVRLNLHPMYYYYGMDVWGQGTLVTVSS VL: QSVLTQPPSASGTPGQRVTISCTGSSSNIGNNAVSWYQQLPGTAPKLLIYSDSQRPSGVPDRFSGSKSGTSASLAISGLRSEDEADYYCATWDYSLSAYVFGGGTKLTVLG	8.52
SAIT-ANG-2-AB-3-D3 (scFv form) (scFv, V domains shown, scFv from a phage display library) VH: EVQLLESGGGLVQPGGSLRLSCAASGFTFSDYDMSWVRQAPGKGLEWVSGISSDDGNTYYADSVKGRFTISRDNSKNTLYLQMNSLRAEDTAVYYCARPTIDKYTLRGYYSYGMDVWGQGTLVTVSS VL: QSVLTQPPSASGTPGQRVTISCTGSSSNIGSNYVSWYQQLPGTAPKLLIYSDNKRPSGVPDRFSGSKSGTSASLAISGLRSEDEADYYCGTWDDSLNGYVFGGGTKLTVLG	8.37
SAIT-ANG-2-AB-4-C11 (scFv form) (scFv, V domains shown, scFv from a phage display library) VH: EVQLLESGGGLVQPGGSLRLSCAASGFTFSDYAMSWVRQAPGKGLEWVSSIYPDDGNTYYADSVKGRFTISRDNSKNTLYLQMNSLRAEDTAVYYCARHTSHHTSIDGYYYYGMDGWGQGTLVTVSS VL: QSVLTQPPSASGTPGQRVTISCTGSSSNIGNNDVSWYQQLPGTAPKLLIYSDSKRPSGVPDRFSGSKSGTSASLAISGLRSEDEADYYCGSWDYSLSGYVFGGGTKLTVLG	8.31

Shift focus to the following entry.
Query (binder): SAIT-ANG-2-AB-7-C9 (scFv form) (scFv, V domains shown, scFv from a phage display library) VH: EVQLLESGGGLVQPGGSLRLSCAASGFTFSNYAMSWVRQAPGKGLEWVSAISSGGGNIYYADSVKGRFTISRDNSKNTLYLQMNSLRAEDTAVYYCAKSGIQPSPPSMSSAYAMDVWGQGTLVTVSS VL: QSVLTQPPSASGTPGQRVTISCSGSSSNIGNNDVYWYQQLPGTAPKLLIYANSHRPSGVPDRFSGSKSGTSASLAISGLRSEDEADYYCGTWDYSLSGYVFGGGTKLTVLG ; field requested: pKd
8.42
